assay: Equilibrium solubility in diluted drug product (mixed two-vial formulation); assay type: physicochemical; details: 24 °C, aqueous with cosolvent or surfactant or cyclodextrin, thermodynamic from solid, 24 ± 3° C.; 7.5% ethanol, 4% POE castor oil in tartrate buffer; individual lots of drug substance; read-out: Equilibrium Solubility in Diluted Drug Product
assayEndpoint: solubility thermodynamic at 16 h (µg/mL)
Give just the number in µg/mL; leave the unit off.

Exercise: Output measured solubility thermodynamic at 16 h for this item: CSCO[C@H]1C[C@H]2OC[C@@]2(OC(C)=O)[C@H]2[C@H](OC(=O)c3ccccc3)[C@]3(O)C[C@H](OC(=O)[C@H](O)[C@@H](NC(=O)c4ccccc4)c4ccccc4)C(C)=C([C@@H](OC(C)=O)C(=O)[C@]12C)C3(C)C [Compound Ia, 7-O-methylthiomethylpaclitaxel]
Key: 2580

###

Assay: Solubility in aqueous dehydrated alcohol / POE castor oil solutions
Format: physicochemical
Conditions: aqueous dehydrated alcohol/POE castor oil solution, 24 °C, aqueous with cosolvent or surfactant or cyclodextrin, thermodynamic from solid, Aqueous vehicle: Dehydrated Alcohol 3.75% v/v, POE Castor Oil 2% v/v; stirred 16 hours; read-out: Drug Solubility
Experimental: However, this solution cannot be injected directly into patients as the non-aqueous components exceed 20%, thus potentially causing irritation at the injection site. […] Subsequently, solubility of the drug substance was determined in solutions containing various amounts of dehydrated alcohol and POE castor oil. […] Samples were stirred for 16 hours, filtered trough 0.45 micron nylon syringe filters and analyzed by HPLC for drug concentration.
assayEndpoint: solubility at 16 h (µg/mL)
State the answer as a number, implicitly in µg/mL.

Exercise: Assign solubility at 16 h to the following record: `CSCO[C@H]1C[C@H]2OC[C@@]2(OC(C)=O)[C@H]2[C@H](OC(=O)c3ccccc3)[C@]3(O)C[C@H](OC(=O)[C@H](O)[C@@H](NC(=O)c4ccccc4)c4ccccc4)C(C)=C([C@@H](OC(C)=O)C(=O)[C@]12C)C3(C)C`
Key: 960

###

assay: Solubility of compound in a co-solvent:water mixture; type: physicochemical; conditions: tertiary butyl alcohol:water mixture, aqueous with cosolvent or surfactant or cyclodextrin, thermodynamic from solid, Tertiary Butyl Alcohol 66% v/v in water, stirred over 16 hours
assayEndpoint: solubility (mg/mL)
Please give a number only; it is taken to be in mg/mL.

Exercise: Read off the recorded solubility for CSCO[C@H]1C[C@H]2OC[C@@]2(OC(C)=O)[C@H]2[C@H](OC(=O)c3ccccc3)[C@]3(O)C[C@H](OC(=O)[C@H](O)[C@@H](NC(=O)c4ccccc4)c4ccccc4)C(C)=C([C@@H](OC(C)=O)C(=O)[C@]12C)C3(C)C [Compound Ia, 7-O-methylthiomethylpaclitaxel]
Key: 13

###

assay: Solubility in prototype formulation (75% v/v dehydrated alcohol, 10 mM tartrate buffer, apparent pH 5.4); type: physicochemical; details: 25 °C, aqueous with cosolvent or surfactant or cyclodextrin, thermodynamic from solid, room temperature, average of four lots
assayEndpoint: solubility at 16 h

Exercise: // Input: `CSCO[C@H]1C[C@H]2OC[C@@]2(OC(C)=O)[C@H]2[C@H](OC(=O)c3ccccc3)[C@]3(O)C[C@H](OC(=O)[C@H](O)[C@@H](NC(=O)c4ccccc4)c4ccccc4)C(C)=C([C@@H](OC(C)=O)C(=O)[C@]12C)C3(C)C` . Output its solubility at 16 h only.
Key: ~22 mg/mL

###

assay: Solubility of compound in a co-solvent:water mixture; format: physicochemical; settings: tertiary butyl alcohol:water mixture, aqueous with cosolvent or surfactant or cyclodextrin, thermodynamic from solid, Tertiary Butyl Alcohol 33% v/v in water, stirred over 16 hours
assayEndpoint: solubility (µg/mL)
Please respond with the number in µg/mL and leave the unit unwritten.

Exercise: // Input: CSCO[C@H]1C[C@H]2OC[C@@]2(OC(C)=O)[C@H]2[C@H](OC(=O)c3ccccc3)[C@]3(O)C[C@H](OC(=O)[C@H](O)[C@@H](NC(=O)c4ccccc4)c4ccccc4)C(C)=C([C@@H](OC(C)=O)C(=O)[C@]12C)C3(C)C [Compound Ia, 7-O-methylthiomethylpaclitaxel] . Output its solubility only.
Key: 190

###

Assay: Solubility of compound in a co-solvent:water mixture
Assay type: physicochemical
Conditions: tertiary butyl alcohol:water mixture, aqueous with cosolvent or surfactant or cyclodextrin, thermodynamic from solid, Tertiary Butyl Alcohol 50% v/v in water, stirred over 16 hours
Protocol: Approximately 25 mg of drug substance was added to 2 mL aqueous solution of ethanol (33%, 50% and 75% v/v). An additional 10 mg of drug substance was added to the 75% sample as all drug appeared to dissolve. A similar study was performed by adding approximately 25 mg drug substance to 2 mL aqueous solution of tertiary butyl alcohol (33%, 50% and 66% v/v). Samples were stirred for over 16 hours, filtered through 0.45μ nylon syringe filters, diluted and analyzed by HPLC for drug concentration. […]
assayEndpoint: solubility (µg/mL)
Give just the number in µg/mL; leave the unit off.

Exercise: Give solubility for `CSCO[C@H]1C[C@H]2OC[C@@]2(OC(C)=O)[C@H]2[C@H](OC(=O)c3ccccc3)[C@]3(O)C[C@H](OC(=O)[C@H](O)[C@@H](NC(=O)c4ccccc4)c4ccccc4)C(C)=C([C@@H](OC(C)=O)C(=O)[C@]12C)C3(C)C`
Key: 3130

###

assay: Solubility of compound in a co-solvent:water mixture; format: physicochemical; details: ethanol:water mixture, aqueous with cosolvent or surfactant or cyclodextrin, thermodynamic from solid, Dehydrated Alcohol, USP 33% v/v in water, stirred over 16 hours
assayEndpoint: solubility (µg/mL)
The reply should be a number in µg/mL, with the unit left off.

Exercise: Look up and report measured solubility for this entry: `CSCO[C@H]1C[C@H]2OC[C@@]2(OC(C)=O)[C@H]2[C@H](OC(=O)c3ccccc3)[C@]3(O)C[C@H](OC(=O)[C@H](O)[C@@H](NC(=O)c4ccccc4)c4ccccc4)C(C)=C([C@@H](OC(C)=O)C(=O)[C@]12C)C3(C)C`
Key: 30

###

test: Solubility of compound in a co-solvent:water mixture; assay type: physicochemical; conditions: ethanol:water mixture, aqueous with cosolvent or surfactant or cyclodextrin, thermodynamic from solid, Dehydrated Alcohol, USP 75% v/v in water, stirred over 16 hours
assayEndpoint: solubility

Exercise: // fetch solubility given entry CSCO[C@H]1C[C@H]2OC[C@@]2(OC(C)=O)[C@H]2[C@H](OC(=O)c3ccccc3)[C@]3(O)C[C@H](OC(=O)[C@H](O)[C@@H](NC(=O)c4ccccc4)c4ccccc4)C(C)=C([C@@H](OC(C)=O)C(=O)[C@]12C)C3(C)C [Compound Ia, 7-O-methylthiomethylpaclitaxel]
Key: > 17.5 mg/mL

###

Assay: Equilibrium solubility in diluted drug product (mixed two-vial formulation)
Type: physicochemical
Conditions: 24 °C, aqueous with cosolvent or surfactant or cyclodextrin, thermodynamic from solid, Average @ 24 ± 3° C.; 7.5% ethanol, 4% POE castor oil in tartrate buffer; four lots; read-out: Equilibrium Solubility in Diluted Drug Product, Average
From the text: A study was also undertaken to determine the equilibrium solubility of Compound Ia in the mixture obtained by mixing the contents of the two vial formulation. Ten milliliters of the mixed solution was transferred into four 10 cc Type I flint glass vials. […] Samples were filtered through 0.45 micron hydrophilic PVDF membranes and analyzed by HPLC for drug concentration. […] Upon removal from the storage chamber, samples were immediately filtered and analyzed by HPLC for drug concentration.
assayEndpoint: solubility thermodynamic at 16 h

Exercise: Give solubility thermodynamic at 16 h for the following compound: CSCO[C@H]1C[C@H]2OC[C@@]2(OC(C)=O)[C@H]2[C@H](OC(=O)c3ccccc3)[C@]3(O)C[C@H](OC(=O)[C@H](O)[C@@H](NC(=O)c4ccccc4)c4ccccc4)C(C)=C([C@@H](OC(C)=O)C(=O)[C@]12C)C3(C)C [Compound Ia, 7-O-methylthiomethylpaclitaxel]
Key: ~2580 µg/mL

###

assay: Solubility in prototype formulation (75% v/v dehydrated alcohol, 10 mM tartrate buffer, apparent pH 5.4); type: physicochemical; settings: 5 °C, aqueous with cosolvent or surfactant or cyclodextrin, thermodynamic from solid, 5±3° C., read-out: equilibrium solubility
assayEndpoint: solubility thermodynamic (mg/mL)
Give the quantity in mg/mL, number only.

Exercise: Give recorded solubility thermodynamic. `CSCO[C@H]1C[C@H]2OC[C@@]2(OC(C)=O)[C@H]2[C@H](OC(=O)c3ccccc3)[C@]3(O)C[C@H](OC(=O)[C@H](O)[C@@H](NC(=O)c4ccccc4)c4ccccc4)C(C)=C([C@@H](OC(C)=O)C(=O)[C@]12C)C3(C)C`
Key: 23

###

experiment: Solubility in aqueous dehydrated alcohol / POE castor oil solutions; assay type: physicochemical; conditions: aqueous dehydrated alcohol/POE castor oil solution, 24 °C, aqueous with cosolvent or surfactant or cyclodextrin, thermodynamic from solid, Aqueous vehicle: Dehydrated Alcohol 7.50% v/v, POE Castor Oil 4% v/v; stirred 16 hours; read-out: Drug Solubility
assayEndpoint: solubility at 16 h

Exercise: Item `CSCO[C@H]1C[C@H]2OC[C@@]2(OC(C)=O)[C@H]2[C@H](OC(=O)c3ccccc3)[C@]3(O)C[C@H](OC(=O)[C@H](O)[C@@H](NC(=O)c4ccccc4)c4ccccc4)C(C)=C([C@@H](OC(C)=O)C(=O)[C@]12C)C3(C)C` : provide solubility at 16 h
Key: > 1500 µg/mL
